TGT: D(1A) dopamine receptor (Homo sapiens)
Sequence (P21728 whole entry): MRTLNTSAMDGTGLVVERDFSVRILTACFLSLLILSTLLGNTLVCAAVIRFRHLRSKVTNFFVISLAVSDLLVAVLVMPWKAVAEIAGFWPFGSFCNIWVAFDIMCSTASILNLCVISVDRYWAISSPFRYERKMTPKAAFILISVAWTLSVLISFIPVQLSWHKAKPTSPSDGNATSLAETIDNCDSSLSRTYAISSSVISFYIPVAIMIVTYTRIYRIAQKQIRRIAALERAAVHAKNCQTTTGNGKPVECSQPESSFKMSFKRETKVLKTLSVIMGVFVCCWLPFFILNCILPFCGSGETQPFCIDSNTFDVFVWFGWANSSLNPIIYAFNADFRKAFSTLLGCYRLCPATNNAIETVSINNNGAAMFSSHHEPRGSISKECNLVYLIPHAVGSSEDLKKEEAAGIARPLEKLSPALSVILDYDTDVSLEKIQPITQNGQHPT
EXPERIMENT NOTES: Displacement of [3H]SCH 23390 from human dopamine D1 receptor expressed in CHO cells
Binary label based on Ki with cut-off 7 nM: below gives criterion met, not below gives criterion not met.

Lookup: Item CN1CCN(C2=Nc3cc(Cl)ccc3N(NC(=O)c3cnc4ccccc4c3)c3ccccc32)CC1 : Ki beneath 7 nM, strictly?
Found: criterion not met

Lookup: API: query returns whether the compound falls strictly under 7 nM in Ki. Query: COc1ccc(CCC(=O)NN2c3ccc(Cl)cc3N=C(N3CCN(C)CC3)c3ccccc32)cc1Cl
Found: criterion not met

Lookup: Say whether its Ki is strictly beneath 7 nM. Entry: CN1CCN(C2=Nc3cc(Cl)ccc3N(NC(=O)c3ccccc3N3CCN(C)CC3)c3ccccc32)CC1
Found: criterion not met

Lookup: Input CN1CCN(C2=Nc3cc(Cl)ccc3N(NC(=O)c3c(Cl)cc(Cl)cc3Cl)c3ccccc32)CC1 ; condition: Ki strictly below 7 nM. Does it hold?
Found: criterion met

Lookup: Threshold test, Ki < 7 nM: CN1CCN(C2=Nc3cc(Cl)ccc3N(NC(=O)c3ccccc3-n3ccnc3)c3ccccc32)CC1
Found: criterion not met

Lookup: Hi there! Is Ki for CN1CCN(C2=Nc3cc(Cl)ccc3N(NC(=O)c3ccccc3Cl)c3ccccc32)CC1 below 7 nM, do you know?
Found: criterion met

Lookup: Ki under 7 nM? Item: CN1CCN(C2=Nc3cc(Cl)ccc3N(NC(=O)CCC3CCCC3)c3ccccc32)CC1
Found: criterion not met

Lookup: Is the reported Ki for CN1CCN(C2=Nc3cc(Cl)ccc3N(NC(=O)c3c(F)cccc3C(F)(F)F)c3ccccc32)CC1 strictly below 7 nM?
Found: criterion met

Lookup: Say whether its Ki is strictly beneath 7 nM. Entry: CN1CCN(C2=Nc3cc(Cl)ccc3N(NC(=O)c3ccsc3)c3ccccc32)CC1
Found: criterion not met

Lookup: Take the compound Cc1cccc(C(=O)NN2c3ccc(Cl)cc3N=C(N3CCN(C)CC3)c3ccccc32)c1 and say whether its Ki is less than 7 nM.
Found: criterion met

Lookup: Check if Ki falls below 7 nM for CN1CCN(C2=Nc3cc(Cl)ccc3N(NC(=O)c3cccc(Cl)c3)c3ccccc32)CC1 .
Found: criterion met

Lookup: Would you kindly verify if Ki of CN1CCN(C2=Nc3cc(Cl)ccc3N(NC(=O)c3ccc(Cl)cc3)c3ccccc32)CC1 is strictly less than 7 nM?
Found: criterion not met

Lookup: Item CN1CCN(C2=Nc3cc(Cl)ccc3N(NC(=O)CCc3ccccc3)c3ccccc32)CC1 : Ki beneath 7 nM, strictly?
Found: criterion not met

Lookup: Consider the compound COc1cccc(OC)c1C(=O)NN1c2ccc(Cl)cc2N=C(N2CCN(C)CC2)c2ccccc21 . Is its Ki strictly less than 7 nM?
Found: criterion met

Lookup: Below 7 nM on Ki? Entry CN1CCN(C2=Nc3cc(Cl)ccc3N(NC(=O)c3c(Cl)cccc3Cl)c3ccccc32)CC1
Found: criterion met

Lookup: # strict comparison: is reported Ki < 7 nM? input = CCCC(CCC)C(=O)NN1c2ccc(Cl)cc2N=C(N2CCN(C)CC2)c2ccccc21
Found: criterion not met

Lookup: Record CN1CCN(C2=Nc3cc(Cl)ccc3N(NC(=O)c3ccc(C(F)(F)F)cc3)c3ccccc32)CC1 : is its Ki strictly below 7 nM?
Found: criterion not met
